Consider the following compounds; for each one, report its MIC.
Test system: Pseudomonas aeruginosa
Experiment: Antimicrobial activity against Pseudomonas aeruginosa ATCC 27853 incubated for 18 to 20 hrs
Format: functional
Settings: time 18-20 hrs
*1 amine or outer side, *2 acyl side, *3 side chain or, on linkers, in order; H or OH if unused. Where a SMILES comes first, the peptide text is derived from it. [ ]: non-standard residue; d: D form. Pro(trans-4-cHex) = O=C(O)[C@@H]1C[C@@H](C2CCCCC2)CN1; Pro(trans-4-Ph) = O=C(O)[C@@H]1C[C@@H](c2ccccc2)CN1; X1 = CS[C@H]1C[C@@H](C(=O)[*:2])N([*:1])C1
Supply the numeric figure in µM, leaving out any unit text.

Prompt: Any idea what its MIC is? The compound is CC[C@H](C)[C@H](NC(=O)[C@H](CCCNC(=N)N)NC(=O)CNC(=O)[C@H](CC(C)C)NC(=O)[C@H](Cc1ccccc1)NC(=O)[C@H](CCCCN)NC(=O)[C@H](CO)NC(=O)[C@H](Cc1ccccc1)NC(=O)[C@H](Cc1c[nH]c2ccccc12)NC(=O)[C@H](CCC(N)=O)NC(=O)[C@@H]1C[C@@H](C2CCCCC2)CN1C(=O)[C@@H](NC(=O)[C@@H](N)Cc1ccccc1)C(C)C)C(=O)N[C@@H](CC(C)C)C(N)=O (H-FV[Pro(trans-4-cHex)]QWFSKFLGRIL-NH2)
Response: 100

Prompt: Any idea what its MIC is? The compound is CC[C@H](C)[C@H](NC(=O)[C@H](CCCNC(=N)N)NC(=O)CNC(=O)[C@H](CC(C)C)NC(=O)[C@H](Cc1ccccc1)NC(=O)[C@H](CCCCN)NC(=O)[C@H](CO)NC(=O)[C@H](Cc1ccccc1)NC(=O)[C@H](Cc1c[nH]c2ccccc12)NC(=O)[C@H](CCC(N)=O)NC(=O)[C@@H]1C[C@H](SC)CN1C(=O)[C@@H](NC(=O)[C@@H](N)Cc1ccccc1)C(C)C)C(=O)N[C@@H](CC(C)C)C(N)=O (H-FV[X1]QWFSKFLGRIL-NH2)
Response: 25

Prompt: Any idea what its MIC is? The compound is CC[C@H](C)[C@H](NC(=O)[C@H](CCCNC(=N)N)NC(=O)CNC(=O)[C@H](CC(C)C)NC(=O)[C@H](Cc1ccccc1)NC(=O)[C@H](CCCCN)NC(=O)[C@H](CO)NC(=O)[C@H](Cc1ccccc1)NC(=O)[C@H](Cc1c[nH]c2ccccc12)NC(=O)[C@H](CCC(N)=O)NC(=O)[C@@H]1C[C@@H](c2ccccc2)CN1C(=O)[C@@H](NC(=O)[C@@H](N)Cc1ccccc1)C(C)C)C(=O)N[C@@H](CC(C)C)C(N)=O (H-FV[Pro(trans-4-Ph)]QWFSKFLGRIL-NH2)
Response: 50

* * *

Assay: Selectivity index, Ratio of IC50 for human MC3T3-E1 cells to IC50 of human MDA-MB-231 cells
Type: toxicity
Details: MC3T3-E1 cells versus MDA-MB-231 cells, read-out: Ratio IC50
endpoint-label: selectivity ratio
Output: the number by itself.

Prompt: Any idea what its selectivity ratio is? The molecule is CCCCCCCCC#CC(c1ccccc1)N1CCCC1 (configuration not stated)
Response: 3.38

Prompt: Any idea what its selectivity ratio is? The molecule is CCCCCCCCC#CC(c1ccc(C(=O)OC)cc1)N1CCCC1 (configuration not stated)
Response: 1.91
